B1: NP_116010.1 (parent)
chain: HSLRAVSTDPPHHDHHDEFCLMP

Variants of: B1
TEST DESCRIPTION: protein stability index of a GFP-peptide fusion (GPS, HEK-293T) (PSI 1-6); higher = more stable;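 also: lentivirally expressed fusion library, cells FACS-sorted into six equal-sized GFP/DsRed ratio bins, PSI computed from sequencing read fractions per bin weighted by bin number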
APPLIED CONDITIONS: c terminus: native
REPORTED ENDPOINT: protein stability index
Answer with the value's number alone.

Some entries whose results are on file:
MUTATION KEY: P23N
protein stability index: 4.23
--
MUTATION KEY: D9Y
protein stability index: 2.37
--
MUTATION KEY: H1C
protein stability index: 2.68

May I ask what protein stability index has been recorded for `H15Y` ?
2.53

Sample `L3C` — what was its protein stability index?
2.38

Which protein stability index is reported for this variant? `T8F`
2.38

Recorded protein stability index for `D17K` , please?
2.4

Using the record for `H12G` , report its protein stability index.
2.68

Report protein stability index for `A5E` please.
2.51

Please give the measured protein stability index for this variant: `D14L`
2.02

Which measured protein stability index value corresponds to `H13F` ?
2.24

Data request, read-out protein stability index, for `D9C`
2.45

I have this variant here, `P11A` , and I need its recorded protein stability index.
2.67

Look up protein stability index for this variant: `S2N`
3.12

Given the variant `P10H` , what is its reported protein stability index?
2.43

Fill in: protein stability index of `H12K` is ___
2.87

I am curious: what protein stability index value has been reported for `D14M` ?
2.29

Return reported protein stability index; argument: `L21V`
2.66

Using the record for `P11R` , report its protein stability index.
2.42

Consider the variant shown here: `F19A` What is its recorded protein stability index?
2.57

Would you mind telling me what protein stability index value was observed for `S2E` ?
2.65

Sample `H16T` — what was its protein stability index?
2.69

# lookup: protein stability index of `C20K`
4.78

Field request: protein stability index | item: `D17C`
2.46

Any idea what its protein stability index is? The variant is `S2D`
3.12

Which protein stability index is listed for `T8E` ?
2.45

Would you mind telling me what protein stability index value was observed for `D14W` ?
1.97

Look at this variant and give its reported protein stability index. `T8N`
2.36

The values you see were collected from the supplement of paper PMC10567573.
